Hello, the source for this data is patent US20190367612A1, in case you need it.

Molecular target: T1, human GPRC5D (human, UniProt Q9NZD1 1-345)
T1 construct: whole, on cells; also called hGPRC5D; G-protein coupled receptor family C group 5 member D
T1 sequence (Q9NZD1 whole entry): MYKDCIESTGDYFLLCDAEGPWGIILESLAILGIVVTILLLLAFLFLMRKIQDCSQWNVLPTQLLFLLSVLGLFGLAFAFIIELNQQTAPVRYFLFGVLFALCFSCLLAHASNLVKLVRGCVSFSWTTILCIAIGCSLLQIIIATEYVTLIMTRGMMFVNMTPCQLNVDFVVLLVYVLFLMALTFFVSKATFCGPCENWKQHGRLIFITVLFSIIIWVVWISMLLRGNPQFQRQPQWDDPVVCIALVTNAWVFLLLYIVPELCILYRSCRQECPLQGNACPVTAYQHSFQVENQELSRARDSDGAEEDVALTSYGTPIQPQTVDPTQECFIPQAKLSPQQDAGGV
Assay: flow cytometry on KHM-1B cells (human GPRC5D), culture supernatant, PE anti-human IgG Fc, rMFI over human IgG isotype control
quantity: binding result

1. humanized anti-GPRC5D antibody h2B1_H1/L1 (antibody, human IgG1, kappa, V domains shown, Human IgG1 / kappa) VH: QVQLVESGGGLVKPSQTLSLTCTFSGFSLNTYDMGVGWIRQPPGKGLEWIGNIWWDDDKYYNPSLKSRVTISVDTSKNQASLKLSSVTAADTAVYYCARIETVRVSRKGFAHWGQGTLVTVSS VL: DTVMTQSPDSLAVSLGERATINCKASQSVGINVDWYQQKPGQPPKLLIYGASNRHTGVPDRFSGSGSGRDFTLTISSLQAEDVAVYYCLQHGSIPPTFGQGTKVEIKR : binds
2. humanized anti-GPRC5D antibody h2B1_H4/L1 (antibody, human IgG1, kappa, V domains shown, Human IgG1 / kappa) VH: QVTLKESGPALVKPTQTLTLTCTFSGFSLNTYDMGVGWIRQPPGKGLEWLANIWWDDDKYYSPSLKSRLTITKDTSNNQAVLTMTNMDPVDTATYYCARIETVRVSRKGFAHWGQGTLVTVSS VL: DTVMTQSPDSLAVSLGERATINCKASQSVGINVDWYQQKPGQPPKLLIYGASNRHTGVPDRFSGSGSGRDFTLTISSLQAEDVAVYYCLQHGSIPPTFGQGTKVEIKR : binds
3. humanized anti-GPRC5D antibody h2B1_H2/L5 (antibody, human IgG1, kappa, V domains shown, Human IgG1 / kappa) VH: QVQLVESGGGLVKPSQTLSLTCTFSGFSLNTYDMGVGWIRQPPGKGLEWIGNIWWDDDKYYNPSLKSRVTISKDTSNNQASLKLSSVTAADTAVYYCARIETVRVSRKGFAHWGQGTLVTVSS VL: ATRMTQSPSSFSASTGDRVTITCKASQSVGINVDWYQQKPGKSPKLLIYGASNRHTGVPSRFSGSGFGRDFTLTISSLQSEDFATYYCLQHGSIPPTFGGGTKVEIKR : binds
